Assay Explanation: Machine-vision-based single-particle analysis (SPA) solubility measurement, pH-solubility profile
Assay type: physicochemical
Reported Conditions: read-out: S0 SPA (intrinsic solubility)
Measurement Label: solubility at 5 min (µg/mL)
Express the result in µg/mL but write the number alone.

Fill in the blank: the reported solubility at 5 min of O=C(O)Cc1ccccc1Nc1c(Cl)cccc1Cl [diclofenac, Diclofenac] is ____.
0.6
